# System under test: UniProt P29476
# Sequence (P29476 whole entry): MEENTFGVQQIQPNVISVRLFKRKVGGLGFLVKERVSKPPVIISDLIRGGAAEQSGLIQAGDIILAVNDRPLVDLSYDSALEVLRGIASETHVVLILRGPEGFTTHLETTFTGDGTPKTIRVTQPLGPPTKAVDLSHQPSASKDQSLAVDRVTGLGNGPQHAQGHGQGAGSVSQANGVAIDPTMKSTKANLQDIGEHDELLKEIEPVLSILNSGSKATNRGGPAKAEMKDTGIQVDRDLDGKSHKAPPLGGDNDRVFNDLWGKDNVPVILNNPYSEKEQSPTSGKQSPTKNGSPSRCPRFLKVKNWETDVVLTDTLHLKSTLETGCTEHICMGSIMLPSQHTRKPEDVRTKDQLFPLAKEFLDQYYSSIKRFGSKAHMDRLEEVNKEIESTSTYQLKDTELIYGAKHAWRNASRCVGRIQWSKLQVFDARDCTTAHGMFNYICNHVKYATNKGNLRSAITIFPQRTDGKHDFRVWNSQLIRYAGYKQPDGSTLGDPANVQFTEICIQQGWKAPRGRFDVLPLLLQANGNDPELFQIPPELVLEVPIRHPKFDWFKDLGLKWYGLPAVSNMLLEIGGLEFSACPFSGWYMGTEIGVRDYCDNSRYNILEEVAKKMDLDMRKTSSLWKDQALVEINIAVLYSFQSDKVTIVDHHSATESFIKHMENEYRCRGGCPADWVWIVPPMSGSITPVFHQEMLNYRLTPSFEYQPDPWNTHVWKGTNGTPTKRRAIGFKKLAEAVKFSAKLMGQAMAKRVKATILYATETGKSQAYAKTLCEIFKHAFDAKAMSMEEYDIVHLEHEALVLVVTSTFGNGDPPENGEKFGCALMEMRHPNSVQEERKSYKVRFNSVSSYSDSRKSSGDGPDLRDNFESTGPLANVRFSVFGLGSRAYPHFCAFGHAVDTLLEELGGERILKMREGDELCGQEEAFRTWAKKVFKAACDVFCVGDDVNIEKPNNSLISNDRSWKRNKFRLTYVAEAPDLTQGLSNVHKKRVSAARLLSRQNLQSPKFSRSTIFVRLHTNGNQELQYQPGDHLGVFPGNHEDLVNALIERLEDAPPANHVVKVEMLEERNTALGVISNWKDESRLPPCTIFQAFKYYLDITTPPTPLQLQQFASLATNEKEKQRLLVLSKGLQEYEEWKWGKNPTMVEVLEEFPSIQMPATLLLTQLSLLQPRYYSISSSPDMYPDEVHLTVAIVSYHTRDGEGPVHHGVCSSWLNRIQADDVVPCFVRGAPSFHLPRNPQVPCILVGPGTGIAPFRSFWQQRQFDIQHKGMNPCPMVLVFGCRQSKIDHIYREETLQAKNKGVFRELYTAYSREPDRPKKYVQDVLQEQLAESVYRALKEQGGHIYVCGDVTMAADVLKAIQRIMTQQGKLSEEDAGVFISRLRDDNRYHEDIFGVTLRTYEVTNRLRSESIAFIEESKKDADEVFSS
Collected pIC50 values appear next to each entry.
Schema: pIC50 number; meaning minus log10 of the concentration expressed in molar units.

Below: 3 compounds and their reported pIC50.
CN1CCN(CCOc2ccc(-c3cccc(N)n3)c3c2CCCC3)CC1 : 7.00
CN(C)C1CCN(CCOc2ccc(-c3cccc(N)n3)c3ccccc23)CC1 : 6.71
CN(C)CCOc1ccc(-c2cccc(N)n2)c2ccccc12 : 6.78

For the compound shown here, CN1CCCC1COc1ccc(-c2cccc(N)n2)c2ccccc12 (stereo not given) , give the reported pIC50.
7.09

Entry CN1CCC(Oc2ccc(-c3cccc(N)n3)c3ccccc23)C1 (stereo not given) : reported pIC50 = ?
7.32

Look up pIC50 for this compound: CN(C)C1CCCCC1Oc1ccc(-c2cccc(N)n2)c2ccccc12 (stereo not given)
6.85

Param item = "CN(C)CCOc1ccc(-c2cccc(N)n2)c2c1CCCC2" ; retrieve measured pIC50.
7.47

Quick one: pIC50 of "CN1CCN(CCOc2ccc(-c3cccc(N)n3)c3c2CCC3)CC1" ?
7.09

Quick one: pIC50 for "Nc1cccc(-c2ccc(OCCN3CCCC3)c3c2CCCC3)n1" ?
7.10

// query pIC50 value for entry "CN1CCN(CCOc2ccc(-c3cccc(N)n3)c3ccccc23)CC1"
6.51

====

# System under test: Nitric oxide synthase, inducible (Homo sapiens, UniProt P35228)
# Sequence (P35228 whole entry): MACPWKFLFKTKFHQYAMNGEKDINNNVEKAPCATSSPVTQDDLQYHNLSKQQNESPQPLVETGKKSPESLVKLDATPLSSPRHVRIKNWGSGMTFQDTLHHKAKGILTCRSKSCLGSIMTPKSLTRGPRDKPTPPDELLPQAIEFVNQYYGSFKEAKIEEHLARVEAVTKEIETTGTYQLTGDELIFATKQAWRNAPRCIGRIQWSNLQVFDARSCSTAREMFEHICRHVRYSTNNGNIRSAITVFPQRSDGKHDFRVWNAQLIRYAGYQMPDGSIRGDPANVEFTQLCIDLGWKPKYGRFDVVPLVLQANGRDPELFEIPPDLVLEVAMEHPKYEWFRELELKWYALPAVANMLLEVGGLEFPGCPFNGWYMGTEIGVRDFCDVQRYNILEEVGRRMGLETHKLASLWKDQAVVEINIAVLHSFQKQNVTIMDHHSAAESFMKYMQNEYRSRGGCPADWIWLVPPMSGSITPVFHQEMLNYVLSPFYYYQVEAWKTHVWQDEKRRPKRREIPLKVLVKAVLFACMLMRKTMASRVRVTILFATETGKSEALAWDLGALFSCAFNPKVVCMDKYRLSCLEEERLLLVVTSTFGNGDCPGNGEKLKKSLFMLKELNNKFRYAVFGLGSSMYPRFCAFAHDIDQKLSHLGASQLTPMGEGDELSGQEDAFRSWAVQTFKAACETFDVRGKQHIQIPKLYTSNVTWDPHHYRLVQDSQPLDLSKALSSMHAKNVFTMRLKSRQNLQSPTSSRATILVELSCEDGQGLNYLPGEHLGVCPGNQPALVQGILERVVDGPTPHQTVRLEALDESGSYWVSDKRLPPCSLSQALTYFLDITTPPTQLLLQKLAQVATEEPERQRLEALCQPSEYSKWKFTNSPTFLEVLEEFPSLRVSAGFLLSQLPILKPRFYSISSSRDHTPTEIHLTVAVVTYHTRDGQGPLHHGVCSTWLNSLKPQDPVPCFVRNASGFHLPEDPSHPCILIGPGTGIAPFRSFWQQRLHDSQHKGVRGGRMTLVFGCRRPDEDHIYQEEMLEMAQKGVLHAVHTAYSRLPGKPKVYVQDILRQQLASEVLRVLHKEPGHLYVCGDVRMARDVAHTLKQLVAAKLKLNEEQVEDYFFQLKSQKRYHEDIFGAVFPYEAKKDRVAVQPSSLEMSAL
# Assay summary: In vitro inhibition of human inducible nitric oxide synthase
Catalogue of IC50 values
Quick note: give the figure in nM, leave out the unit.

Give its IC50 value. Item: CN(C)C1CCCCC1Oc1ccc(-c2cccc(N)n2)c2ccccc12 (centres undefined)
2370

Look up IC50 for this compound: "CN1CCN(CCOc2ccc(-c3cccc(N)n3)c3c2CCCC3)CC1"
1280

Could you share which IC50 value was measured for "CN1CCN(CCOc2ccc(-c3cccc(N)n3)c3c2CCC3)CC1" ?
2200

Bench note: what IC50 did Nc1cccc(-c2ccc(OCC3CC4CCN3CC4)c3ccccc23)n1 (centres undefined) show?
5800
